The origin of these recorded values is patent US20240010721A1.

Target under test: T1, hROR2ECD-his (human, UniProt Q01974 34-403)
T1 construct: extracellular domain; bought, Acrobiosystems R02-H52E5; also called huROR2-his
T1 sequence (Q01974 34-403): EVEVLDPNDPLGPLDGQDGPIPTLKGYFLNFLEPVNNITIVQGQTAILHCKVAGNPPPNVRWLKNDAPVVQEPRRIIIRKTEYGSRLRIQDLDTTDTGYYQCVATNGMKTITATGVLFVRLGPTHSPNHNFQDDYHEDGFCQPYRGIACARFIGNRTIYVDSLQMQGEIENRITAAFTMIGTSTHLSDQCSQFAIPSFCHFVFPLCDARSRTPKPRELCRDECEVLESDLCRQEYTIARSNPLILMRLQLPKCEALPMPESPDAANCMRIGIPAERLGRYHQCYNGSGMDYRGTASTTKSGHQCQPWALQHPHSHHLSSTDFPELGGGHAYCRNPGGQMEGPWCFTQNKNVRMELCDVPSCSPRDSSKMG
Method description: ELISA, plate coated with hROR2 ECD-his
Measured property: binding result

Binder	Measured property	Reported value
PR001417 (antibody, V domains shown, fully human IgG1, kappa) VH: QVQLVESGGGVVQPGRSLRLSCAASGFSFSSYAMHWVRQAPGRGLEWVAVIWYDGGDEDYIDSVKGRFTISRDDSKNTLYLQMNSLRAEDTAVYYCAREQARSFDLWGRGTLVTVSS VL: DVVMTQSPSTLSASVGDRVTITCRASQSINSWLAWYQQKPGKAPKLLIYKASSLESGVPSRFSGSGSGTEFTLTISSLQPDDFATYYCQQYNSYSPMYTFGQGTKVEIKR	binding result	no binding
PR001355 (antibody, human IgG1, kappa, V domains shown, fully human IgG1, kappa) VH: QVQLVQSGGGLVQPGGSLRLSCAASGFTFSSYGMHWVRQAPGKGLEWVAVIWYDGSNKDYADSVKGRFTISRDTSKNTLYLQMNSLRAEDTAVYYCVREQARSFDLWGRGTLVTVSS VL: DIQMTQSPSSLSASVGDRVTITCRASQTMNNWLAWYQQKPGKAPKLLIYKASSLESGVPSRFSGSGSGTEFTLTISSLQPDDSATYYCQQYNSYSPMYTFGQGTKLEIKR	binding result	no binding
